- System: Trypanosoma cruzi
- experiment_description: Antitrypanosomal activity against trypomastigote form of Trypanosoma cruzi Tulahuen expressing beta-galactosidase infected in mouse NIH/3T3 cells assessed as inhibition of parasite replication after 4 days by betagalactosidase-based luminescence assay
- Format: functional, organism-based
- applied_conditions: NIH3T3, 96 h
Assign IC50 to each entry below.
// units = nM; emit number, no label

Can you share its IC50? I mean this molecule: COc1ccc(C(=O)C2CCCN(CCc3ccccc3)C2)cc1OC (stereo unspecified)
518

Item: CN(Cc1ccccc1)C(=O)C1CCCN(Cc2ccc(C(F)(F)F)cc2)C1 (stereo unspecified)
8

Item: CCn1ncc(CN2CCCC(C(=O)c3cccc(OC(C)C)c3)C2)c1C (stereo unspecified)
56

Item: Cc1cc(C)n(CC(=O)N2CCCC(C(=O)c3cccc(OC(C)C)c3)C2)n1 (stereo unspecified)
16500

Item: COc1cc2c(cc1OC)CN(C(=O)C1CCCN(Cc3ccccc3)C1)CC2 (stereo unspecified)
763

Item: Cn1cc(CN2CCCC(C(=O)c3ccc(C(C)(C)C)cc3)C2)cn1 (stereo unspecified)
1630

---

- experiment_description: Solubility of compound in phosphate buffered saline buffer
- Assay type: physicochemical
test_readout: solubility

Can you share its solubility? I mean this molecule: COc1ccc(CCN(C)C(=O)C2CCCN(Cc3ccc(OC)c(OC)c3)C2)cc1OC (stereo not given)
> 500 µM

Item: COc1ccc(CN2CCCC(C(=O)N3CCCC3)C2)c(OC)c1OC (stereo not given)
> 100 µM

Item: COc1ccccc1CN1CCCC(C(=O)N(C)Cc2ccccc2)C1 (stereo not given)
> 100 µM

Item: CN(Cc1ccccc1)C(=O)C1CCCN(Cc2ccc([N+](=O)[O-])cc2)C1 (stereo not given)
> 100 µM

Item: CCN(CC)C(=O)C1CCCN(Cc2cccc(Cl)c2)C1 (stereo not given)
> 100 µM

Item: COc1cc2c(cc1OC)CN(C(=O)C1CCCN(Cc3ccccc3)C1)CC2 (stereo not given)
> 100 µM

Item: CCCn1cc(CN2CCCC(C(=O)c3cccc(C(F)(F)F)c3)C2)cn1 (stereo not given)
> 200 µM

Item: CN(Cc1ccccc1)C(=O)C1CCCN(Cc2ccc(Br)cc2)C1 (stereo not given)
> 100 µM

Item: CC(C)Oc1cccc(C(=O)C2CCCN(Cc3cnn(C(C)C)c3)C2)c1 (stereo not given)
> 200 µM

Item: Cn1cc(CN2CCCC(C(=O)c3ccc(C(C)(C)C)cc3)C2)cn1 (stereo not given)
> 200 µM

Item: CN(Cc1ccccc1)C(=O)C1CCCN(Cc2ccccc2C(F)(F)F)C1 (stereo not given)
> 100 µM

Item: COc1ccc(CCN(C)C(=O)C2CCCN(Cc3ccccc3)C2)cc1OC (stereo not given)
> 100 µM

Item: CCn1ncc(CN2CCCC(C(=O)c3cccc(OC(C)C)c3)C2)c1C (stereo not given)
> 200 µM

Item: Cc1cc(C)n(CC(=O)N2CCCC(C(=O)c3cccc(OC(C)C)c3)C2)n1 (stereo not given)
> 200 µM

Item: COc1ccc(CCN(C)C(=O)C2CCCN(Cc3ccc(F)cc3)C2)cc1OC (stereo not given)
> 100 µM

The values you see were collected from ChEMBL document CHEMBL1921698.
